These measurements were taken from the supplement of paper PMC7411054.

Tested on: HepG2-CANX-COX4
ASSAY_INFO: phenotypically active (imaging signature differs from DMSO and reproducible) at any of 0.3-9 uM (binary (1 = active, 0 = inactive)); higher = active
MEASUREMENT_PARAMETERS: treatment time: 24 h
Counter-ions that a name gives are not always drawn.
Select the correct class. Options are active, inactive and nothing else.

I'd appreciate the recorded outcome for `Cc1cc(Nc2ccc(NC(=O)c3ccc(Nc4ccnc5ccccc45)cc3)cc2)nc(N)n1` from this test. inactive

I'd appreciate the recorded outcome for `CCCOc1ccc(CCc2nc3cc(-c4c(C)noc4C)ccc3n2CCN2CCOCC2)cc1` from this test. active

I'd appreciate the recorded outcome for NC(=O)C(c1ccccc1)(c1ccccc1)[C@@H]1CCN(CCc2ccc3c(c2)CCO3)C1 [darifenacin] from this test. active

I'd appreciate the recorded outcome for CCc1ccc(/C=C/C(=O)Nc2ccc(C(C)=O)cc2)o1 [Heclin] from this test. inactive

I'd appreciate the recorded outcome for COCCOC(=O)C1=C(C)NC(C)=C(C(=O)OC(C)C)C1c1cccc([N+](=O)[O-])c1 (centres undefined) [nimodipine] from this test. inactive

I'd appreciate the recorded outcome for `CC(C)C(=O)SCCCCC[C@H](NC(=O)OC(C)(C)C)C(=O)NC12CC3CC(CC(C3)C1)C2` from this test. inactive

I'd appreciate the recorded outcome for `COC(=O)c1sccc1S(=O)(=O)Nc1ccc(Nc2ccccc2)cc1OC` from this test. inactive

I'd appreciate the recorded outcome for O=P(O)(O)C(O)(Cc1cccnc1)P(=O)(O)O [risedronate] from this test. inactive

I'd appreciate the recorded outcome for `N#C/C(=C/c1ccc(O)c(O)c1)C(=O)NCCCCc1ccccc1` from this test. active

I'd appreciate the recorded outcome for Clc1ccc2nsnc2c1NC1=NCCN1 [tizanidine] from this test. inactive

I'd appreciate the recorded outcome for CC(C)c1c(C(=O)Nc2ccccc2)c(-c2ccccc2)c(-c2ccc(F)cc2)n1CC[C@@H](O)C[C@@H](O)CC(=O)O [atorvastatin] from this test. active

I'd appreciate the recorded outcome for CC(C)(C)NC[C@H](O)COc1nsnc1N1CCOCC1 [timolol] from this test. inactive

I'd appreciate the recorded outcome for CN1CCN(C2=Nc3cc(Cl)ccc3Nc3ccccc32)CC1 [clozapine] from this test. inactive

I'd appreciate the recorded outcome for C=CCc1ccccc1OC[C@@H](O)CNC(C)C [Alprenolol hydrochloride] from this test. inactive

I'd appreciate the recorded outcome for CCCCOc1cc(C(=O)OCCN(CC)CC)ccc1N [oxybuprocaine] from this test. inactive

I'd appreciate the recorded outcome for CC(=C/[C@@H](C)C(=O)c1ccc(N(C)C)cc1)/C=C/C(=O)NO [Trichostatin A] from this test. active

I'd appreciate the recorded outcome for `Fc1ccc(-c2c3cccc(C(F)(F)F)c3nn2Cc2ccc(F)cc2Cl)cc1` from this test. inactive

I'd appreciate the recorded outcome for CN1C(=O)CC(c2ccccc2)C1=O (centres undefined) [phensuximide] from this test. inactive

I'd appreciate the recorded outcome for CC(C)(C)NC[C@H](O)COc1cccc2c1CCCC2=O [levobunolol] from this test. inactive

----------
Provide the reported lowest phenotypically active concentration of each item.
System: HepG2-CANX-COX4
ASSAY_INFO: lowest phenotypically active concentration; higher = less potent
MEASUREMENT_PARAMETERS: treatment time: 24 h
Counter-ions that a name gives are not always drawn.
Answer in µM, number only, no unit symbol.

Need lowest phenotypically active concentration, item O=C(O)Cc1cccc(OCCCN(Cc2cccc(C(F)(F)F)c2Cl)CC(c2ccccc2)c2ccccc2)c1 [GW 3965 hydrochloride] 9

Need lowest phenotypically active concentration, item `Oc1ccc(Nc2nc(-c3ccc(Cl)cc3)cs2)cc1` 9

Need lowest phenotypically active concentration, item `CCCCCCCCCCNCCSSCc1ccc(Cl)cc1` 1

Need lowest phenotypically active concentration, item `Cc1noc(C)c1-c1ccc2c(c1)nc(CCc1ccc(OCCCN(C)C)cc1)n2CCN1CCOCC1` 9

Need lowest phenotypically active concentration, item COc1ccc(CC2c3cc(OC)c(OC)cc3CC[N+]2(C)CCC(=O)OCCCCCOC(=O)CC[N+]2(C)CCc3cc(OC)c(OC)cc3C2Cc2ccc(OC)c(OC)c2)cc1OC (stereo not given) [Atracurium besilate] 9

----------
Tested on: WPMY1-ACTB-RAB5A
ASSAY_INFO: phenotypically active (imaging signature differs from DMSO and reproducible) at any of 0.3-9 uM (binary (1 = active, 0 = inactive)); higher = active
MEASUREMENT_PARAMETERS: treatment time: 24 h
Provide the reported phenotypically active of each item.

Test system WPMY1-ACTB-RAB5A; read-out phenotypically active; what value for C[C@@H]1O[C@@H](O[C@H]2[C@H](Oc3cc(O)c4c(c3)O[C@H](c3ccc(O)cc3)CC4=O)O[C@H](CO)[C@@H](O)[C@@H]2O)[C@H](O)[C@H](O)[C@H]1O [Naringin hydrate] ? 0 (inactive)

Test system WPMY1-ACTB-RAB5A; read-out phenotypically active; what value for `O=C(NCc1ccccn1)Nc1nnc(-c2ccco2)o1` ? 0 (inactive)

Test system WPMY1-ACTB-RAB5A; read-out phenotypically active; what value for `O=C(O)[C@]1(O)C[C@H](O)[C@@H](O)[C@@H](O)C1` ? 0 (inactive)

Test system WPMY1-ACTB-RAB5A; read-out phenotypically active; what value for `Nc1nnc(Sc2ncc([N+](=O)[O-])s2)s1` ? 0 (inactive)

Test system WPMY1-ACTB-RAB5A; read-out phenotypically active; what value for `O=C(Nc1ccccc1)c1cc([N+](=O)[O-])ccc1Cl` ? 0 (inactive)

----------
Tested on: HepG2-CANX-COX4
ASSAY_INFO: lowest phenotypically active concentration; higher = less potent
MEASUREMENT_PARAMETERS: treatment time: 24 h
PROPERTY_MEASURED: lowest phenotypically active concentration (µM)
Answer in µM, number only, no unit symbol.

Test system HepG2-CANX-COX4; read-out lowest phenotypically active concentration; what value for Nc1nc(S)c2[nH]cnc2n1 [thioguanine] ? 1

Test system HepG2-CANX-COX4; read-out lowest phenotypically active concentration; what value for CC(C)c1c(C(=O)Nc2ccccc2)c(-c2ccccc2)c(-c2ccc(F)cc2)n1CC[C@@H](O)C[C@@H](O)CC(=O)O [atorvastatin] ? 9

Test system HepG2-CANX-COX4; read-out lowest phenotypically active concentration; what value for `COc1cc2nc(-c3cc(F)ccc3O)nc(N[C@@H]3CNC[C@H]3C(C)(C)O)c2cc1OC` ? 1

Test system HepG2-CANX-COX4; read-out lowest phenotypically active concentration; what value for `CN1C/C(=C/c2ccc(B(O)O)cc2)C(=O)/C(=C/c2ccc(B(O)O)cc2)C1` ? 3

Test system HepG2-CANX-COX4; read-out lowest phenotypically active concentration; what value for `Cc1ccc(-n2nc(C(C)(C)C)cc2NC(=O)Nc2ccc(OCCN3CCOCC3)c3ccccc23)cc1` ? 3

Test system HepG2-CANX-COX4; read-out lowest phenotypically active concentration; what value for O=c1cc(-c2ccccc2)oc2c(O)c(O)ccc12 [7,8-Dihydroxyflavone] ? 9

Test system HepG2-CANX-COX4; read-out lowest phenotypically active concentration; what value for `C[C@@H]1COCCN1c1cc(C2(S(C)(=O)=O)CC2)nc(-c2cccc3[nH]ccc23)n1` ? 1

Test system HepG2-CANX-COX4; read-out lowest phenotypically active concentration; what value for Cc1noc(C)c1-c1cc(O)cc(C(O)c2ccccc2)c1 (centres undefined) ? 3

Test system HepG2-CANX-COX4; read-out lowest phenotypically active concentration; what value for Cc1cc2c(F)c(Oc3ncnn4cc(OC[C@@H](C)O)c(C)c34)ccc2[nH]1 [brivanib] ? 9

Test system HepG2-CANX-COX4; read-out lowest phenotypically active concentration; what value for `CC(C)(C)Nc1nc(Nc2ccc(C(N)=O)cc2)cc(N)c1C#N` ? 3

----------
Provide the reported lowest phenotypically active concentration of each item.
Test system: A549-CANX-COX4
ASSAY_INFO: lowest phenotypically active concentration; higher = less potent
MEASUREMENT_PARAMETERS: treatment time: 24 h
Counter-ions that a name gives are not always drawn.

Need lowest phenotypically active concentration, item `O=C(CCCCCN1C(=O)c2cccc3cccc(c23)C1=O)NO` 1 µM

Need lowest phenotypically active concentration, item `C#Cc1cccc(Nc2ncnc3cc(OCCOC)c(OCCOC)cc23)c1` 3 µM

Need lowest phenotypically active concentration, item `COc1ccc2[nH]c(C(=O)c3ccccc3)cc2c1` ≤ 0.3 µM

Need lowest phenotypically active concentration, item `C[C@H]1C[C@@H]2[C@H]([C@@H](O)C[C@@]3(C)[C@H]2CC[C@]3(O)C(=O)CO)[C@@]2(C)C=CC(=O)C=C12` ≤ 0.3 µM

Need lowest phenotypically active concentration, item Oc1cccc(-c2nc(N3CCOCC3)c3oc4ncccc4c3n2)c1 [PI 103 hydrochloride] ≤ 0.3 µM

Need lowest phenotypically active concentration, item `CC(=O)[C@@]1(O)CC[C@H]2[C@@H]3C[C@H](C)C4=CC(=O)C=C[C@]4(C)[C@@]3(F)[C@@H](O)C[C@@]21C` ≤ 0.3 µM

Need lowest phenotypically active concentration, item C[C@]12CCC(=O)C=C1CC[C@@H]1[C@@H]2[C@@H](O)C[C@@]2(C)[C@H]1CC[C@]2(O)C(=O)CO [hydrocortisone] ≤ 0.3 µM

Need lowest phenotypically active concentration, item `CCN(CC)c1ccc(/C=N/NC(=O)c2ccncc2)c(O)c1` 1 µM

Need lowest phenotypically active concentration, item `O=C(Nc1ccc(-c2ccnc(Nc3ccc(N4CCOCC4)cc3)n2)cc1)[C@@H]1CCCN1` 9 µM

Need lowest phenotypically active concentration, item `CC(C)c1cc(-c2n[nH]c(=O)n2-c2ccc3c(ccn3C)c2)c(O)cc1O` ≤ 0.3 µM

Need lowest phenotypically active concentration, item `CCC(=O)N1CCN(c2ccc(-n3c(=O)ccc4cnc5ccc(-c6cnc7ccccc7c6)cc5c43)cc2C(F)(F)F)CC1` ≤ 0.3 µM

Need lowest phenotypically active concentration, item `CNC(=O)Nc1ccc(-c2nc(N3CC4CCC(C3)O4)c3cnn(C4CCC5(CC4)OCCO5)c3n2)cc1` ≤ 0.3 µM

Need lowest phenotypically active concentration, item `Cc1ccc(C(=O)N(CCCN)[C@@H](c2nc3cc(Cl)ccc3c(=O)n2Cc2ccccc2)C(C)C)cc1` ≤ 0.3 µM

Need lowest phenotypically active concentration, item `CO[C@H]1C[C@@H]2CC[C@@H](C)[C@@](O)(O2)C(=O)C(=O)N2CCCC[C@H]2C(=O)O[C@H]([C@H](C)C[C@@H]2CC[C@@H](OC(=O)C(C)(CO)CO)[C@H](OC)C2)CC(=O)[C@H](C)C=C(C)[C@@H](O)[C@@H](OC)C(=O)[C@H](C)C[C@H](C)C=CC=CC=C1C` ≤ 0.3 µM

Need lowest phenotypically active concentration, item `CC(C)n1nc(-c2cc3cc(O)ccc3[nH]2)c2c(N)ncnc21` 1 µM
